The measured values listed here are drawn from patent US20230144211A1.

# Test system: AU-565 cells
# Procedure Text: In vitro cell viability assay (CellTiter-Glo, 6 days)
# Format: cell-based, human
# Experimental Parameters: Homo sapiens, AU565, free antifolate drugs, Table 1a
So I've got a bunch of molecules here, and I need their IC50 values.
Numbers only, in nM.

INSERT INTO results (smiles_code, numeric_result) VALUES
  ('Nc1ccc(-c2cn(CCC[C@H](NC(=O)c3ccc(NCc4cnc5nc(N)nc(N)c5n4)cc3)C(=O)O)nn2)c(C(=O)O)c1', 0.9);

Let us move to another entry and its IC50.
Q: Quick one: IC50 for Nc1nc(N)c2nc(CNc3ccc(C(=O)N[C@@H](CCCNC(=O)c4ccc(O)cc4)C(=O)O)cc3)cnc2n1 ?
Result: 1.9
